- Assayed target: TYR (Agaricus bisporus, UniProt C7FF04)
- Sequence (C7FF04 1-392): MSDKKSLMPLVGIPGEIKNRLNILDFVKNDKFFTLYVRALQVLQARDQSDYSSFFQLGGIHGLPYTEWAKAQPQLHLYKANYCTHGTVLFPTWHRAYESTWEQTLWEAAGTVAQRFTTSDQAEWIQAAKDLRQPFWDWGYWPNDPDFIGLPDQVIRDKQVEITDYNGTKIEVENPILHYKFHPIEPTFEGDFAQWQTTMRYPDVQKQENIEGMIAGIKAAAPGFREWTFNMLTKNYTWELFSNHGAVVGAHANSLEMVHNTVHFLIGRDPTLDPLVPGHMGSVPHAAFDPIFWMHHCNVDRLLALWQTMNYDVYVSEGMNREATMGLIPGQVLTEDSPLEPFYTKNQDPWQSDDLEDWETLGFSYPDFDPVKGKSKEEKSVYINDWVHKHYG
- Assay procedure: TYR inhibit assay (spectrophotometry, L-tyrosine substrate)
- Format: biochemical
- Set-up: purchased Sigma-Aldrich
- Protocol conditions: TYR inhibitory activity; L-tyrosine 0.4 mM, absorbance at 480 nm, triplicate; read-out: IC50 ± SD
- Method: TYR inhibition by PLR extract solution, selected compounds and Kojic acid was analyzed by spectrophotometry. […] Absorbance was measured in triplicate at 480 nm and inhibition ratios were calculated from the mean of the triplicate observations according to Equation (2):(2) Inhibitory Ratio (%) = Ab−Ae/Ab × 100%, where Ab and Ae represented the absorption of blank groups and experiment groups, respectively.
Assay endpoint: IC50

Compound: O=c1c(-c2ccc(O)cc2)coc2c(C3OC(COC4OCC(O)(CO)C4O)C(O)C(O)C3O)c(O)ccc12 (centres unmarked)
Reported: 12.7 µM

For the next question, use this compound.
Provide IC50, tested on TYR (Agaricus bisporus, UniProt C7FF04), for O=c1c(-c2ccc(O)cc2)coc2cc(O[C@@H]3O[C@H](CO)[C@@H](O)[C@H](O)[C@H]3O)cc(O)c12 .
> 500 µM
